Just for reference, paper PMC4552634 is where these values come from.

- System: P. falciparum stage V gametocytes
- Parameters: BacTiter-Glo ATP luminescence viability of purified stage V gametocytes in 384-well plates, per cent inhibition versus DMSO
- assay-context: 48 h, 5 µM; inhibitor
About 3,200 (25%) of roughly 13,000 compounds showed an effect of 50% or more. The list shows a part of the results.
observable: % Inhibition (%)
Express your answer in %, writing the number without its unit.

Q) Need % Inhibition, item O=[N+]([O-])c1cc(/C=N/Nc2nc3ccccc3[nH]2)ccc1O [TCMDC-139076]
A) 6.997

Q) Consider next the molecule Cc1cc(=O)[nH]c(-n2nc(C)cc2NC(=O)CC(c2ccccc2)c2ccccc2)n1 [TCMDC-124944] in the same way.
A) -15.6

Q) Consider next the molecule CC(C)c1cccc(C(C)C)c1NC(=O)NNC(=O)c1ccc(CCN2CCC(c3nc(COCC(F)(F)F)c(-c4ccc(F)cc4)o3)CC2)cc1 [TCMDC-131908] in the same way.
A) -22.37

Q) Consider next the molecule Cc1ccc(Cn2ncc(N3CCC(N)CC3)c(Cl)c2=O)cc1NC(=O)Nc1ccc(-c2ccccc2)cc1 [TCMDC-141932] in the same way.
A) 107.1

Q) Consider next the molecule Cc1ccc(Cn2ncc(NC3CCNCC3)c(Cl)c2=O)cc1NC(=O)Nc1ccc(-c2ccccc2)cc1 [TCMDC-141929] in the same way.
A) 95.66

Q) Consider next the molecule Cn1cccc1CCNCc1ccc(-c2cccc(-c3nc4ccccc4[nH]3)c2)cc1.O=C(O)C(F)(F)F [TCMDC-132543] in the same way.
A) 2.509

Q) Consider next the molecule COc1ccc2nccc([C@@H](O)CN3CCC(NC(=O)C(c4cc5ccccc5o4)N4CCN(c5ccccc5)CC4)CC3)c2c1 (stereo partly shown) [TCMDC-140989] in the same way.
A) 28.59

Q) Consider next the molecule O=C(O)C(F)(F)F.c1cc(-c2ccc(CNCc3ccsc3)cc2)cc(-c2nc3ccccc3[nH]2)c1 [TCMDC-132563] in the same way.
A) -10.09

Q) Consider next the molecule Cc1cc(=O)[nH]c(-n2nc(C)cc2NC(=O)C(c2ccccc2)c2ccccc2)n1 [TCMDC-124945] in the same way.
A) 2.872

Q) Consider next the molecule COC(=O)c1cccc(CNCc2ccc(-c3cccc(-c4nc5ccccc5[nH]4)c3)cc2)c1.O=C(O)C(F)(F)F [TCMDC-132555] in the same way.
A) 70.67

Q) Consider next the molecule Cc1ccc(NC(=O)N2CCC(n3c(-c4ccccc4)nc4cccnc43)CC2)cc1F [TCMDC-124742] in the same way.
A) 24.56

Q) Consider next the molecule CN(C)S(=O)(=O)n1ncc2c3c(N)nc(N)nc3ccc21 [TCMDC-131933] in the same way.
A) 29.56

Q) Consider next the molecule Cn1cncc1CNCc1ccc(-c2cccc(-c3nc4ccccc4[nH]3)c2)cc1.O=C(O)C(F)(F)F [TCMDC-132569] in the same way.
A) 52.47

Q) Consider next the molecule Cc1ccccc1CNc1noc(-c2c(-c3ccccc3)noc2C)n1 [TCMDC-134201] in the same way.
A) -15.74

Q) Consider next the molecule CCC(C)CN1CCCN(c2ccc(NC(=O)c3cccs3)cc2)CC1 (stereo not shown) [TCMDC-134998] in the same way.
A) 9.826

Q) Consider next the molecule COc1ccc(-c2cnc(NCc3ccccc3)nc2)cc1CNC1CCN(C)CC1 [TCMDC-134121] in the same way.
A) 34.84
